Origin of measurements: ChEMBL document CHEMBL1201862

Test system: PC-3
Experiment: NCI tumour cell line growth inhibition, 48 h
The source made the active and inactive calls. Rule as the data show it: active = GI50 up to about 1.1 µM and inactive = higher.
Would you kindly list GI50 for each of these compounds?

Which value of GI50 has been reported for C/C(=N\Nc1nc2ccccc2[nH]1)c1cccc[n+]1[O-] in the records?
> 100 µM (inactive)

Entry C=C1CCC[C@@H](C)C(O)[C@@H]2OC(=O)C(=C)[C@@H]2C[C@@H](OC(C)=O)[C@@]2(C)CC[C@@H]1O2 (some centres undefined) has what GI50?
8.39 µM (inactive)

Query (compound): O=C1CC(=O)c2c(O)cc(O)c(c2O)-c2c(ccc(O)c2O)C2=CC(=O)c3c(O)cc(O)c(c3O2)-c2c1ccc(O)c2O.O=C1CC2(O)Oc3c1c(O)cc(O)c3-c1c(ccc(O)c1O)-c1cc(=O)c3c(O)cc(O)c(c3o1)-c1c2ccc(O)c1O ; field requested: GI50
> 50 µM (inactive)

For the compound Cc1ccc(-c2nc3n(c2/C=N\N=C(N)N)CCS3)cc1 , what GI50 is on record?
15 µM (inactive)

Given the compound COc1ccc(NC(=O)N(C)CC2(O)CCC(C(C)(C)C)CC2)cc1 (centres undefined) , what is its reported GI50?
14.7 µM (inactive)

Suppose we examine the compound O=C(O)c1ccc(Cc2ccccc2C(=O)O)cc1 ; what GI50 value has been reported?
> 100 µM (inactive)

If you can, please state the reported GI50 value of CCCn1c(=O)c(N2CCN(c3ccccc3)CC2)nc2sc3ccccc3c21 .
> 100 µM (inactive)

Need GI50 of CCC(=O)OCOc1ccc(/C=C2\CCC(CN(C)C)C2=O)cc1 (centres undefined) , thanks.
14.2 µM (inactive)

Give the measured GI50 of O=C(O)C1Cc2ccccc2OC1=O (centres undefined) .
> 100 µM (inactive)
